Ref: paper PMC10786891

# reported Kd; entries follow
- Target entity: T1, EsCas13d, nuclease-dead (Eubacterium siraeum, UniProt B0MS50, R295A;H300A;R849A;H854A)
- T1 sequence: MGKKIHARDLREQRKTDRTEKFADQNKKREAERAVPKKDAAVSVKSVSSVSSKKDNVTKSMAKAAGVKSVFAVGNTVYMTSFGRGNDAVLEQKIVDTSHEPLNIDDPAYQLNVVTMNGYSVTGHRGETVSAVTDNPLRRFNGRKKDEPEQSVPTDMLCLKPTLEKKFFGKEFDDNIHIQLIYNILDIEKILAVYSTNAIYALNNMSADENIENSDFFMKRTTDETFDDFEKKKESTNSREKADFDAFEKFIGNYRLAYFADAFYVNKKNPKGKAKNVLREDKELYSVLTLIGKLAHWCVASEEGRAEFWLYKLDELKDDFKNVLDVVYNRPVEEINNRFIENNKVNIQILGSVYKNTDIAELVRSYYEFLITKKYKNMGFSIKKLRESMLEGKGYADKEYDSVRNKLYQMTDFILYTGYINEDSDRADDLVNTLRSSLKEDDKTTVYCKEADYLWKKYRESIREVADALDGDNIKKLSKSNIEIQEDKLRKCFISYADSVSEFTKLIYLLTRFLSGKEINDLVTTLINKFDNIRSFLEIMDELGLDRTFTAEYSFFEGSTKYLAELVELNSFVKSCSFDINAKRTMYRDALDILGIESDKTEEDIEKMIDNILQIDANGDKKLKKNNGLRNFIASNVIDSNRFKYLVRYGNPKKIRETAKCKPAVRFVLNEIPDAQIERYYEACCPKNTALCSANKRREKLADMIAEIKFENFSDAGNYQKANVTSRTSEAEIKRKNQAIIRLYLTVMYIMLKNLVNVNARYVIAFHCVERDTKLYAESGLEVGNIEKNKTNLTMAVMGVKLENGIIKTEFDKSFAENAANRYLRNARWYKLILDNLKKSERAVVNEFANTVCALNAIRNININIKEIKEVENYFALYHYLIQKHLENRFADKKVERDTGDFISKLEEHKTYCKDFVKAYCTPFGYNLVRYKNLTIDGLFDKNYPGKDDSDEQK
- Experimental protocol: crRNA (strand 1, pre-loaded); Mg2+; 40 mM Tris-HCl pH 7.5, 150 mM NaCl, 6 mM MgCl2, 1 mM DTT, 0.1% Tween-20, 0.2 mg/ml BSA; 25 C; 10 min per concentration, then washed
- Measurement context: tags: His6-TwinStrep-SUMO cleaved; N-terminal SNAP kept (SNAP-Surface 488); label: 3' end held by stalled T7 RNA polymerase
Give just the numeric value; nM need not be written.

These recorded examples may help you get a feel for the data.
* target 1 insA 3' of 19,insG 3' of 14 (mixed) RNA 1: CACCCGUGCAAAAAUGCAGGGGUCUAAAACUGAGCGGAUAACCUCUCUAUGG RNA 2: GGGAAUGGAUCCACAUCUACGAAUUCGUACCAUAAGAGAGGGUUAUCCGCUCACCGAGAUCGGAAGAGCACACGU | 28.6
* target 3 G3U,A9G (mixed) RNA 1: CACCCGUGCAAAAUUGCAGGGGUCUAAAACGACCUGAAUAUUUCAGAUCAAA RNA 2: GGGAAUGGAUCCACAUCUACGAAUUCGUUUUUGAUCUGAAAUGUUCAGUUCUGCAGAUCGGAAGAGCACACGU | 67.5
* target 1 G5A,U8A (mixed) RNA 1: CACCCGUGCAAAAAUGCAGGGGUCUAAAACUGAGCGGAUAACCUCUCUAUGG RNA 2: GGGAAUGGAUCCACAUCUACGAAUUCGUACCAUAGAGAGGUUAACCACUCACCGAGAUCGGAAGAGCACACGU | 45
* target 3 insC 3' of 13,insG 3' of 2 (mixed) RNA 1: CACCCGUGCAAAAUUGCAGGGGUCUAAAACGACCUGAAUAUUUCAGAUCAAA RNA 2: GGGAAUGGAUCCACAUCUACGAAUUCGUUUUUGAUCUGACAAUAUUCAGGUGCUGCAGAUCGGAAGAGCACACGU | 50
* target 1 A1G,U3A (mixed) RNA 1: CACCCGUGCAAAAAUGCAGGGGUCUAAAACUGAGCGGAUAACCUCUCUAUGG RNA 2: GGGAAUGGAUCCACAUCUACGAAUUCGUACCAUAGAGAGGUUAUCCGCACGCCGAGAUCGGAAGAGCACACGU | 6.8

## Task Using the record for target 3 insC 3' of 9,insG 3' of 7 (mixed) RNA 1: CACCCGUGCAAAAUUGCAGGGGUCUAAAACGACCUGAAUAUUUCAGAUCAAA RNA 2: GGGAAUGGAUCCACAUCUACGAAUUCGUUUUUGAUCUGAAAUACUUGCAGGUCUGCAGAUCGGAAGAGCACACGU , report its Kd.
## Result 88
